Target: GST-MCL-1 (Homo sapiens (Human))
Sequence (Q07820 whole entry): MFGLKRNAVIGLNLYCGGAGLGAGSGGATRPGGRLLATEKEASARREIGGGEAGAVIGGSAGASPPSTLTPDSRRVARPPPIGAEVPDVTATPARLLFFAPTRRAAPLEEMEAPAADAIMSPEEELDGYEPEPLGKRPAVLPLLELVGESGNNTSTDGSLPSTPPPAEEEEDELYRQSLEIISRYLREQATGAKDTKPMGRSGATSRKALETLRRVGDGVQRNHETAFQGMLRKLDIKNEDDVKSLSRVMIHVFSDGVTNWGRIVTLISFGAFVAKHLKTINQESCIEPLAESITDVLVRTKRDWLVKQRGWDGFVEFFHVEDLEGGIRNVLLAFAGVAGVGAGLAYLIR
Assay protocol: TR-FRET MCL-1 binding assay (competition with probe F-Bak)
Run conditions: read-out: MCL-1 Binding Ki (nM, 10% HS), in the presence of 10% HS
Method: For the assay, an acoustic dispenser was used to prepare dilution series from 10 mM test compounds in 100% DMSO and directly transfer 160 nL into low volume 384-well assay plates. […] The samples were then mixed on a shaker for 1 minute and incubated for an additional 2 hours at room temperature. […] Fluorescence was measured on the Envision (Perkin Elmer) using a 340/35 nm excitation filter and 520/525 (F-Bak) and 495/510 nm (Tb-labeled anti-his antibody) emission filters. […]
Ki listing for selected compounds.
Only the number, expressed in nM, is required.

[[record]]
compound = "Cc1c(Cl)c2c(Cl)c(C)c1-c1c(-c3ccc(F)cc3)sc3ncnc(c13)O[C@@H](C(=O)O)Cc1cc(ccc1OCc1ccnc(OC[C@H]3COCCO3)n1)OC[C@@H](CN1CCN(C)CC1)O2"
target = "GST-MCL-1 (Homo sapiens (Human))"
experimental_endpoint = "Ki"
observed_value = 0.19


Sample Cc1c(Cl)c2c(Cl)c(C)c1-c1c(-c3ccc(F)cc3)sc3ncnc(c13)O[C@@H](C(=O)O)Cc1cc(ccc1OCc1ccnc(C3COCCOC3)n1)OC[C@@H](CN1CCN(C)CC1)O2 — what was its Ki?
0.16

Using the record for Cc1c(Cl)c2c(Cl)c(C)c1-c1c(C3CCCCC3)sc3ncnc(c13)O[C@@H](C(=O)O)Cc1cc(ccc1OCc1ccnc(-c3ccc(OC[C@@H]4COCCO4)cc3)n1)OC[C@@H](CN1CCN(C)CC1)O2 , report its Ki.
4.11
